B1: ZNF449 (parent)
chain: HKKKSPGEKPHRCPQCGKCFARKS

Variants of: B1
experiment notes: protein stability index of a GFP-peptide fusion (GPS, HEK-293T) (PSI 1-6); higher = more stable;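 also: lentivirally expressed fusions sorted by FACS into six bins by GFP to DsRed ratio, PSI derived from sequencing read proportions per bin multiplied by bin number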
experimental parameters: c terminus: a fixed tail appended
measured property: protein stability index

{"residue sequence": "HKKKHPGEKPHRCPQCGKCFARKS [S5H]", "measured value": 3.32}
{"residue sequence": "HKKCSPGEKPHRCPQCGKCFARKS [K4C]", "measured value": 3.75}
{"residue sequence": "HKKKSPGEKPHRCPQCGKCFAHKS [R22H]", "measured value": 3.83}
{"residue sequence": "HKKKSPGEKPHRCRQCGKCFARKS [P14R]", "measured value": 3}
{"residue sequence": "HVKKSPGEKPHRCPQCGKCFARKS [K2V]", "measured value": 3.25}
{"residue sequence": "GKKKSPGEKPHRCPQCGKCFARKS [H1G]", "measured value": 3.68}
{"residue sequence": "HKKKSPGEKPHRCPQCGKCFANKS [R22N]", "measured value": 3.45}
{"residue sequence": "HKKKSPGEKPHRCPQCGKCFASKS [R22S]", "measured value": 2.92}
{"residue sequence": "HKKKSPGEKVHRCPQCGKCFARKS [P10V]", "measured value": 3.65}
{"residue sequence": "HKYKSPGEKPHRCPQCGKCFARKS [K3Y]", "measured value": 2.02}
{"residue sequence": "HKKKSPGEKPHRCPMCGKCFARKS [Q15M]", "measured value": 3.95}
{"residue sequence": "HKKKSDGEKPHRCPQCGKCFARKS [P6D]", "measured value": 2.73}
{"residue sequence": "HKKKSPGEKPHRCPQCGKAFARKS [C19A]", "measured value": 3.36}
{"residue sequence": "HKKKSPGEKPHRMPQCGKCFARKS [C13M]", "measured value": 4.82}
{"residue sequence": "NKKKSPGEKPHRCPQCGKCFARKS [H1N]", "measured value": 4.13}
{"residue sequence": "HKKKSPGEKPHRCPQCGKCFDRKS [A21D]", "measured value": 3.51}
{"residue sequence": "HKKKSPGEKPWRCPQCGKCFARKS [H11W]", "measured value": 3.54}
{"residue sequence": "HKGKSPGEKPHRCPQCGKCFARKS [K3G]", "measured value": 3.33}
{"residue sequence": "HKKKSPGFKPHRCPQCGKCFARKS [E8F]", "measured value": 3.14}
{"residue sequence": "HKKKSPGEKPHRSPQCGKCFARKS [C13S]", "measured value": 4.4}
{"residue sequence": "HKKKSPGEKQHRCPQCGKCFARKS [P10Q]", "measured value": 3.09}
{"residue sequence": "HKKKSPGEKPHTCPQCGKCFARKS [R12T]", "measured value": 2.74}
